# Growth Percent listing for each entry below
# Tested on: HCT-15
# experiment-description: NCI SRB assay
# Format: cell-based, human
# condition-details: HCT-15, 1.00E-5 Molar
// note: answer is a bare numeric in %

[
  {
    "record-smiles": "Cc1ccc(-c2nc(Nc3ccccc3C(=O)O)c3ccccc3n2)cc1",
    "Growth Percent (%)": 4.66
  },
  {
    "record-smiles": "Cc1cccc(-c2nc(Nc3ccc(C(=O)O)cc3)c3ccccc3n2)c1",
    "Growth Percent (%)": 70.54
  }
]

Any idea what Growth Percent was measured for Cc1ccc(-c2nc(Nc3cccc(C(=O)O)c3)c3ccccc3n2)cc1 ?
45.38

Also, COc1ccc(-c2nc(Nc3ccccc3C(=O)O)c3ccccc3n2)cc1 please.
39.33

Also, Cc1cccc(-c2nc(Nc3ccccc3C(=O)O)c3ccccc3n2)c1 please.
14.29

Also, Cc1ccc(-c2nc(Nc3ccc(C(=O)O)cc3)c3ccccc3n2)cc1 please.
50.85

----------
# GI% listing for each entry below
# Tested on: M14
# experiment-description: NCI SRB assay
# Format: cell-based, human
# condition-details: M14, 10 μM

[
  {
    "record-smiles": "COc1ccc(-c2nc(Nc3ccccc3C(=O)O)c3ccccc3n2)cc1",
    "assay-readout": "GI%",
    "value-measured": "48%"
  }
]

Any idea what GI% was measured for Cc1ccc(-c2nc(Nc3ccccc3C(=O)O)c3ccccc3n2)cc1 ?
87%

Also, Cc1cccc(-c2nc(Nc3ccccc3C(=O)O)c3ccccc3n2)c1 please.
75%

----------
# System: SNB-19
# experiment-description: NCI SRB assay
# Format: cell-based, human
# condition-details: SNB-19, 5-dose; read-out: LC50 (the source's name)
assay-readout: CC50

Any idea what CC50 was measured for Cc1ccc(-c2nc(Nc3ccccc3C(=O)O)c3ccccc3n2)cc1 [6b] ?
< 100 µM

----------
# Tested on: MDA-MB-435
# experiment-description: NCI SRB assay
# Assay type: cell-based
# condition-details: MDA-MB-435, 10 μM
# GI% listing for each entry below
// note: answer is a bare numeric in %

[
  {
    "compound": "Cc1cccc(-c2nc(Nc3ccccc3C(=O)O)c3ccccc3n2)c1 [6a]",
    "value-measured": 55
  }
]

Any idea what GI% was measured for Cc1ccc(-c2nc(Nc3ccccc3C(=O)O)c3ccccc3n2)cc1 [6b] ?
77

Also, COc1ccc(-c2nc(Nc3ccccc3C(=O)O)c3ccccc3n2)cc1 [6c] please.
44

----------
# Growth Percent listing for each entry below
# Test system: NCI-H23
# experiment-description: NCI SRB assay
# Assay type: cell-based, human
# condition-details: NCI-H23, 1.00E-5 Molar
// note: answer is a bare numeric in %

[
  {
    "compound": "Cc1cccc(-c2nc(Nc3ccc(C(=O)O)cc3)c3ccccc3n2)c1 [8a]",
    "Growth Percent (%)": 99.04
  },
  {
    "compound": "Cc1ccc(-c2nc(Nc3ccccc3C(=O)O)c3ccccc3n2)cc1 [6b]",
    "Growth Percent (%)": -4.11
  },
  {
    "compound": "Cc1cccc(-c2nc(Nc3ccccc3C(=O)O)c3ccccc3n2)c1 [6a]",
    "Growth Percent (%)": 20.79
  }
]

API: value(readout=Growth Percent, system=NCI-H23) for record Cc1ccc(-c2nc(Nc3cccc(C(=O)O)c3)c3ccccc3n2)cc1 [7b]
95.42

Also, COc1ccc(-c2nc(Nc3ccccc3C(=O)O)c3ccccc3n2)cc1 [6c] please.
62.10

Also, Cc1ccc(-c2nc(Nc3ccc(C(=O)O)cc3)c3ccccc3n2)cc1 [8b] please.
87.14

----------
# Test system: DU-145
# experiment-description: NCI SRB assay
# Type: cell-based, human
# condition-details: DU-145, 5-dose; read-out: LC50 (the source's name)
assay-readout: CC50

Any idea what CC50 was measured for Cc1ccc(-c2nc(Nc3ccccc3C(=O)O)c3ccccc3n2)cc1 ?
< 100 µM

----------
# GI% listing for each entry below
# Test system: NCI-H226
# experiment-description: NCI SRB assay
# Format: cell-based, human
# condition-details: NCI-H226, 10 μM
Report the figure along with its unit, number first.

[
  {
    "record-smiles": "Cc1cccc(-c2nc(Nc3ccccc3C(=O)O)c3ccccc3n2)c1",
    "assay-system": "NCI-H226",
    "value-measured": "64%"
  },
  {
    "record-smiles": "Cc1ccc(-c2nc(Nc3ccc(C(=O)O)cc3)c3ccccc3n2)cc1",
    "assay-system": "NCI-H226",
    "value-measured": "62%"
  },
  {
    "record-smiles": "COc1ccc(-c2nc(Nc3ccccc3C(=O)O)c3ccccc3n2)cc1",
    "assay-system": "NCI-H226",
    "value-measured": "47%"
  },
  {
    "record-smiles": "Cc1ccc(-c2nc(Nc3ccccc3C(=O)O)c3ccccc3n2)cc1",
    "assay-system": "NCI-H226",
    "value-measured": "85%"
  },
  {
    "record-smiles": "Cc1ccc(-c2nc(Nc3cccc(C(=O)O)c3)c3ccccc3n2)cc1",
    "assay-system": "NCI-H226",
    "value-measured": "25%"
  }
]

Any idea what GI% was measured for Cc1cccc(-c2nc(Nc3ccc(C(=O)O)cc3)c3ccccc3n2)c1 ?
52%

----------
# Test system: M14
# experiment-description: NCI SRB assay
# Assay type: cell-based, human
# condition-details: M14, 1.00E-5 Molar
assay-readout: Growth Percent (%)
// note: answer is a bare numeric in %

Answered cases to consult:
[
  {
    "record-smiles": "Cc1ccc(-c2nc(Nc3cccc(C(=O)O)c3)c3ccccc3n2)cc1",
    "assay-system": "M14",
    "Growth Percent / %": 83.59
  },
  {
    "record-smiles": "COc1ccc(-c2nc(Nc3ccccc3C(=O)O)c3ccccc3n2)cc1",
    "assay-system": "M14",
    "Growth Percent / %": 52.09
  },
  {
    "record-smiles": "Cc1cccc(-c2nc(Nc3ccccc3C(=O)O)c3ccccc3n2)c1",
    "assay-system": "M14",
    "Growth Percent / %": 25.25
  },
  {
    "record-smiles": "Cc1cccc(-c2nc(Nc3ccc(C(=O)O)cc3)c3ccccc3n2)c1",
    "assay-system": "M14",
    "Growth Percent / %": 88.98
  },
  {
    "record-smiles": "Cc1ccc(-c2nc(Nc3ccccc3C(=O)O)c3ccccc3n2)cc1",
    "assay-system": "M14",
    "Growth Percent / %": 12.58
  }
]

Lab note: next compound to report on.
Any idea what Growth Percent was measured for Cc1ccc(-c2nc(Nc3ccc(C(=O)O)cc3)c3ccccc3n2)cc1 ?
80.88

----------
# Tested on: PC-3
# experiment-description: NCI SRB assay
# Assay type: cell-based, human
# condition-details: PC-3, 1.00E-5 Molar
assay-readout: Growth Percent (%)
// note: answer is a bare numeric in %

[
  {
    "molecule": "COc1ccc(-c2nc(Nc3ccccc3C(=O)O)c3ccccc3n2)cc1 [6c]",
    "assay-system": "PC-3",
    "assay-readout": "Growth Percent",
    "value-measured": 40.04
  }
]

Any idea what Growth Percent was measured for Cc1cccc(-c2nc(Nc3ccccc3C(=O)O)c3ccccc3n2)c1 [6a] ?
29.47

----------
# pKi listing for each entry below
# assay-system: hCA IX (Homo sapiens)
# Construct: made in house
# experiment-description: stopped flow CO2 hydrase assay
# Format: biochemical
# condition-details: mean from 3 assays
Lab note — pKi values are minus log10 of concentrations in M.

Answered cases to consult:
[
  {
    "record-smiles": "Cc1ccc(-c2nc(Nc3cccc(C(=O)O)c3)c3ccccc3n2)cc1",
    "value-measured": 4.62
  },
  {
    "record-smiles": "Cc1cccc(-c2nc(Nc3ccccc3C(=O)O)c3ccccc3n2)c1",
    "value-measured": 4.37
  },
  {
    "record-smiles": "Cc1ccc(-c2nc(Nc3ccc(C(=O)O)cc3)c3ccccc3n2)cc1",
    "value-measured": 5.80
  },
  {
    "record-smiles": "COc1ccc(-c2nc(Nc3ccccc3C(=O)O)c3ccccc3n2)cc1",
    "value-measured": 4.33
  }
]

Any idea what pKi was measured for Cc1cccc(-c2nc(Nc3ccc(C(=O)O)cc3)c3ccccc3n2)c1 ?
5.37

Also, Cc1ccc(-c2nc(Nc3ccccc3C(=O)O)c3ccccc3n2)cc1 please.
4.46

Also, Cc1cccc(-c2nc(Nc3cccc(C(=O)O)c3)c3ccccc3n2)c1 please.
4.53

Also, COc1ccc(-c2nc(Nc3ccc(C(=O)O)cc3)c3ccccc3n2)cc1 please.
5.35

Also, COc1ccc(-c2nc(Nc3cccc(C(=O)O)c3)c3ccccc3n2)cc1 please.
4.50
